Numbers sourced from PubChem BioAssay AID1996.

settings: buffer; pH 7.4; 200.0 µM
Quantity Name: solubility kinetic

Answered cases to consult:
Compound: CCC(Oc1ccc(C)c(C)c1)C(=O)N1CCCN(C)CC1 (stereo unspecified)
Result: > 45.7 µg/mL

Compound: CC(C)NC(=S)N(CCc1ccncc1)C(C)C
Result: 27.4 µg/mL

Compound: CC(=O)NC(Cc1c[nH]c2ccccc12)C(=O)NCCc1ccccn1 (stereo unspecified)
Result: > 52.6 µg/mL

Give me solubility kinetic for each of these compounds, listed below.
1. CC(CNS(=O)(=O)c1ccc(Br)cc1)CN(C)C (stereo unspecified)
2. CC(Sc1nnc2ccccn12)C(=O)Nc1ccc(N2CCOCC2)cc1 (stereo unspecified)

Outgoing:
["> 50.3 µg/mL", "> 57.5 µg/mL"]

Incoming: Record request: solubility kinetic value, item O=[N+]([O-])c1ccc(NCc2ccc3c(c2)OCO3)cc1
Outgoing: < 0.3 µg/mL
